Where do these numbers come from? They come from patent US12029804B2.

Assay: in vitro
Details: human, Caco-2
RESULT_TYPE: Papp (×10⁻⁶ cm/s)
API: value field is a number in ×10⁻⁶ cm/s; no unit string.

Would you kindly share the measured Papp for COCCc1ccc(OCC(O)CNC(C)C)cc1 (stereo not shown) [metoprolol] ?
38.9

---

System: nasal mucous membrane
Conditions: rat, intranasal, fexofenadine with peptide vs fexofenadine alone
Ends that are not written are not given here.
RESULT_TYPE: Fexofenadine Tmax, fold of control group

FKIGRL [Preparation Example 4, FKIGRL, reference compound] :: (1.14-fold)
FCIGRL-NH2 [Preparation Example 1, FCIGRL-NH2, reference compound] :: (1.14-fold)

---

Test: in vivo
Settings: male, Sprague-Dawley, rat, in vivo
RESULT_TYPE: AUC(0-t) (ng·h/mL)
Quick note: give the figure in ng·h/mL, leave out the unit.

Looking for the measured AUC(0-t) of COc1cccc2c1C(=O)c1c(O)c3c(c(O)c1C2=O)C[C@@](O)(C(=O)CO)C[C@@H]3O[C@H]1C[C@H](N)[C@H](O)[C@H](C)O1 [Doxorubicin, doxorubicin, reference compound] , can you help?
76.2
